Target: RARα (Homo sapiens)
Test: chimeric receptor transactivation assay, RARα
Settings: EC50 line of EC50/(EFFICACY)/Kd, read-out: RAR EC50 α
Sequence (P10276 183-462 limits assumed): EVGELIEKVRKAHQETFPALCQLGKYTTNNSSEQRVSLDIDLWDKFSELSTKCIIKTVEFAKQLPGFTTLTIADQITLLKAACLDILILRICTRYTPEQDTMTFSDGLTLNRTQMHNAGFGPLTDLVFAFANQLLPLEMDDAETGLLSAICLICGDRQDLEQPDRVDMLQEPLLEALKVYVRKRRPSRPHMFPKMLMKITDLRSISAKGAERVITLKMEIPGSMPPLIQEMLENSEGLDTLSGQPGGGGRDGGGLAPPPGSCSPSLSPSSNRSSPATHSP
Output T for records whose EC50 is lower than 300 nM, F for records at or above 300 nM.

compound	system under test	assigned label
COC1(c2ccc(C#Cc3ccc(C(=O)O)cc3)cc2)CC1 [Compound 69]	RARα (Homo sapiens)	F
CC1(C)CC2(CC2)Oc2ccc(C#Cc3ccc(C(=O)O)cc3)cc21 [Compound 40]	RARα (Homo sapiens)	T
Cc1cc(C#Cc2ccc(C(=O)O)cc2)ccc1C1(OC(C)C)CC1 [Compound 85]	RARα (Homo sapiens)	F
CCCNC1(c2ccc(C#Cc3ccc(C(=O)O)cc3)cc2)CC1 [Compound 108]	RARα (Homo sapiens)	T
CC1(C)CC2(CC2)Oc2ccc(C#Cc3ccc(C(=O)O)c(F)c3)cc21 [Compound 44]	RARα (Homo sapiens)	T
CN(C1CC1)C1CCC(C)(C)c2cc(C#Cc3ccc(C(=O)O)cc3)ccc21 (stereo not drawn) [Compound 3]	RARα (Homo sapiens)	T
CCc1cc(C#Cc2ccc(C(=O)O)cc2)ccc1C1(OCc2ccccc2)CC1 [Compound 93]	RARα (Homo sapiens)	F
Cc1cc(C#Cc2ccc(C(=O)O)cc2)ccc1C1(OCC(C)(C)C)CC1 [Compound 89]	RARα (Homo sapiens)	T
CC1(C)CCC(=O)c2ccc(C#Cc3ccc(C(=O)O)c(F)c3)cc21 [Compound 10]	RARα (Homo sapiens)	T

###

Molecular target: RARγ (Homo sapiens, UniProt P13631)
Sequence (P13631 185-419 limits assumed): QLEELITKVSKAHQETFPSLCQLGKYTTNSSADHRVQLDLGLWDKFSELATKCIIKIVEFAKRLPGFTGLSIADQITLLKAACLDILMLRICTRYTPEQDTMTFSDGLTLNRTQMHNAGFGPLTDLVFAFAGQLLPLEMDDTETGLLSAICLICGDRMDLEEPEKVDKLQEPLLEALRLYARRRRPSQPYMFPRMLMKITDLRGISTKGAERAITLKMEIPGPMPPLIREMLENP
Test: chimeric receptor transactivation assay, RARγ
Conditions: EC50 line of EC50/(EFFICACY)/Kd, read-out: RAR EC50 γ
pEC50: −log10 of the molar value.
Please note: YES applies when pEC50 is 8 or greater, and NO applies otherwise.

molecular string	assigned label
COC1(c2ccc(C#Cc3ccc(C(=O)O)cc3)cc2)CC1	NO
CCCN(CCC)C1(c2ccc(C#Cc3ccc(C(=O)O)cc3)cc2)CC1	NO
Cc1cc(C#Cc2ccc(C(=O)O)cc2)ccc1C1(OC(C)C)CC1	YES
CC(C)OC1(c2ccc(C#Cc3ccc(C(=O)O)cc3)cc2)CC1	NO
CCCNC1(c2ccc(C#Cc3ccc(C(=O)O)cc3)cc2)CC1	NO

###

Reported log10(Kd) values for the following molecules.
Molecular target: RARβ (Homo sapiens)
Sequence (P10826 1-455): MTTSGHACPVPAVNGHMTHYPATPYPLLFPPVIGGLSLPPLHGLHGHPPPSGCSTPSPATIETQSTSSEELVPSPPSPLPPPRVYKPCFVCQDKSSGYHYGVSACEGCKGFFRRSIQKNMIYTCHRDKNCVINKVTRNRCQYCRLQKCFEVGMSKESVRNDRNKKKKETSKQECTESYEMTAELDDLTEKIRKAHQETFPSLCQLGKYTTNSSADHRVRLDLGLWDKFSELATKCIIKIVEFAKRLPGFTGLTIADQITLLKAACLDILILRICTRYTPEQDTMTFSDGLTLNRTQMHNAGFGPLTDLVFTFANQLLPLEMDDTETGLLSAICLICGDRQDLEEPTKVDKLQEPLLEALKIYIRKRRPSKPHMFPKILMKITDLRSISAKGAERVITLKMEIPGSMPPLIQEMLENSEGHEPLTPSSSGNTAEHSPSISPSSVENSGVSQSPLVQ
measured metric: log10(Kd) (log10 of the value in nM)

molecule	measured
CCCNC1(c2ccc(C#Cc3ccc(C(=O)O)cc3)cc2)CC1 [Compound 108]	2.74
CC1(C)CC(C)(C)c2cc(C#Cc3ccc(CC(=O)O)c(F)c3)ccc2O1 [Compound 32]	3.63
CC1(C)CC2(CC2)Oc2ccc(C#Cc3ccc(C(=O)O)c(F)c3)cc21 [Compound 44]	0.28
CC(C)OC1(c2ccc(C#Cc3ccc(CC(=O)O)cc3)cc2)CC1 [Compound 74]	4.15
CC1(C)CC(C)(C)c2cc(C#Cc3ccc(C(=O)O)c(F)c3)ccc2O1 [Compound 30]	0.34
CCCN(CCC)C1(c2ccc(C#Cc3ccc(C(=O)O)cc3)cc2)CC1 [Compound 110]	2.61
CC1(C)CC2(CC2)Oc2ccc(C#Cc3ccc(CC(=O)O)cc3)cc21 [Compound 42]	3.56
CC1(C)CC2(CC2)Oc2ccc(C#Cc3ccc(C(=O)O)cc3)cc21 [Compound 40]	0.11
CCc1cc(C#Cc2ccc(C(=O)O)cc2)ccc1C1(OCc2ccccc2)CC1 [Compound 93]	2.74

###

Reported Kd values for the following compounds.
Biological target: RARα (Homo sapiens, UniProt P10276)
measured metric: Kd (µM)

1) CC1(C)CC2(CC2)Oc2ccc(C#Cc3ccc(CC(=O)O)cc3)cc21 15
2) O=C(O)c1ccc(C#Cc2ccc(C3(NCc4ccccc4)CC3)cc2)cc1 5.85
3) Cc1cc(C#Cc2ccc(C(=O)O)cc2)ccc1C1(OCc2ccccc2)CC1 4.21

###

Target: RARβ (Homo sapiens)
Assay: chimeric receptor transactivation assay, RARβ
Details: EC50 line of EC50/(EFFICACY)/Kd, read-out: RAR EC50 β
pEC50: −log10 of the molar value.
Please note: true applies when pEC50 is 8 or greater, and false applies otherwise.

compound	assigned label
Cc1cc(C#Cc2ccc(C(=O)O)cc2)ccc1C1(OC(C)C)CC1	true
Cc1cc(C#Cc2ccc(C(=O)O)cc2)ccc1C1(OCC(C)(C)C)CC1	false
CC1(C)CC2(CC2)Oc2ccc(C#Cc3ccc(C(=O)O)cc3)cc21	true
CN(C1CC1)C1CCC(C)(C)c2cc(C#Cc3ccc(C(=O)O)cc3)ccc21 (stereo not shown)	true
CN(C1CC1)C1CCC(C)(C)c2cc(C#Cc3ccc(CC(=O)O)cc3)ccc21 (stereo not shown)	false
CC(C)OC1(c2ccc(C#Cc3ccc(C(=O)O)cc3)cc2)CC1	false
CN(C1CC1)C1CCC(C)(C)c2cc(C#Cc3ccc(C(=O)O)c(F)c3)ccc21 (stereo not shown)	true
CC1(C)CC2(CC2)Oc2ccc(C#Cc3ccc(C(=O)O)c(F)c3)cc21	true
CC1(C)CCC(=O)c2ccc(C#Cc3ccc(C(=O)O)c(F)c3)cc21	true
CCc1cc(C#Cc2ccc(C(=O)O)cc2)ccc1C1(OCc2ccccc2)CC1	false
Cc1cc(C#Cc2ccc(C(=O)O)cc2)ccc1C1(OCc2ccccc2)CC1	false
CCCNC1(c2ccc(C#Cc3ccc(C(=O)O)cc3)cc2)CC1	false
O=C(O)c1ccc(C#Cc2ccc(C3(NCc4ccccc4)CC3)cc2)cc1	false
CCCN(CCC)C1(c2ccc(C#Cc3ccc(C(=O)O)cc3)cc2)CC1	false

###

Tested on: skin of hairless mice
Assay: topical skin irritation test in hairless mice
Type: in vivo, mouse
Settings: 100 nmole (nmol/25 g), topical in acetone, once daily days 1 through 5; mean ±SD, range 0-21
Reported Cutaneous Toxicity Score (Blackjack Score) values for the following compounds.
measured metric: Cutaneous Toxicity Score (Blackjack Score)

compound	measured
CC1(C)CCC(=O)c2ccc(C#Cc3ccc(CC(=O)O)c(F)c3)cc21	1 ± 1
CC1(C)CCC(=O)c2ccc(C#Cc3ccc(CC(=O)O)cc3)cc21	0
CC1(C)CC(C)(C)c2cc(C#Cc3ccc(CC(=O)O)cc3)cc(C3CC3)c2O1	1 ± 1
CN(C1CC1)C1CCC(C)(C)c2cc(C#Cc3ccc(CC(=O)O)cc3)ccc21 (centres unmarked)	5 ± 2
CC1(C)CC(C)(C)c2cc(C#Cc3ccc(CC(=O)O)c(F)c3)cc(C3CC3)c2O1	1 ± 1
CC1(C)CCC(n2ccnc2)c2ccc(C#Cc3ccc(CC(=O)O)cc3)cc21 (centres unmarked)	1 ± 1
CC1(C)CN(C2CC2)Cc2ccc(C#Cc3ccc(CC(=O)O)c(F)c3)cc21	0 ± 0
CC1(C)CC2(CC2)Oc2c(C3CC3)cc(C#Cc3ccc(CC(=O)O)c(F)c3)cc21	1 ± 0

###

Biological target: P450RAI-1 (Homo sapiens)
Sequence (O43174 1-497): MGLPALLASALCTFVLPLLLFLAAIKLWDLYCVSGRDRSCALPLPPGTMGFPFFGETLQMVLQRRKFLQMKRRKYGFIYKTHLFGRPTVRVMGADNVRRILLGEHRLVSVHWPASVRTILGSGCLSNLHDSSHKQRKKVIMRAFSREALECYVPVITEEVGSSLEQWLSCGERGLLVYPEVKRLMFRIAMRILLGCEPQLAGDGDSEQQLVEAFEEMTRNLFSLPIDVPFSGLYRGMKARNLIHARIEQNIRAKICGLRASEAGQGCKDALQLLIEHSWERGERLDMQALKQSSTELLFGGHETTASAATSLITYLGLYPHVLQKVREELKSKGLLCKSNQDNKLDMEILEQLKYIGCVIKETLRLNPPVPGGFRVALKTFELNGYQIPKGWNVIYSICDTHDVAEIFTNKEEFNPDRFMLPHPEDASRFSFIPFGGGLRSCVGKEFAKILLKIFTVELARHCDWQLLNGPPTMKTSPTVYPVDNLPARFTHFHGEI
Assay: P450RAI-1 cell-based inhibitor assay
Conditions: P450RAI-1 stably transfected HeLa cells, [3H]-RA metabolism, 3 hours at 37° C.; read-out: P450RAI INHIBITION DATA INTACT HELA IC50
Reported IC50 values for the following compounds.

compound	system under test	unit abbreviation	IC50
CC1(C)CCC(=O)c2ccc(C#Cc3ccc(C(=O)O)c(F)c3)cc21 [Compound 10]	P450RAI-1 (Homo sapiens)	nM	700
CN(C1CC1)C1CCC(C)(C)c2cc(C#Cc3ccc(C(=O)O)c(F)c3)ccc21 (centres unmarked) [Compound 13]	P450RAI-1 (Homo sapiens)	nM	3100
CC1(C)CC(C)(C)c2cc(C#Cc3ccc(CC(=O)O)cc3)ccc2O1 [Compound 28]	P450RAI-1 (Homo sapiens)	nM	340
